- SYSTEM TESTED: UniProt Q9NR97
- Sequence (Q9NR97 27-1041): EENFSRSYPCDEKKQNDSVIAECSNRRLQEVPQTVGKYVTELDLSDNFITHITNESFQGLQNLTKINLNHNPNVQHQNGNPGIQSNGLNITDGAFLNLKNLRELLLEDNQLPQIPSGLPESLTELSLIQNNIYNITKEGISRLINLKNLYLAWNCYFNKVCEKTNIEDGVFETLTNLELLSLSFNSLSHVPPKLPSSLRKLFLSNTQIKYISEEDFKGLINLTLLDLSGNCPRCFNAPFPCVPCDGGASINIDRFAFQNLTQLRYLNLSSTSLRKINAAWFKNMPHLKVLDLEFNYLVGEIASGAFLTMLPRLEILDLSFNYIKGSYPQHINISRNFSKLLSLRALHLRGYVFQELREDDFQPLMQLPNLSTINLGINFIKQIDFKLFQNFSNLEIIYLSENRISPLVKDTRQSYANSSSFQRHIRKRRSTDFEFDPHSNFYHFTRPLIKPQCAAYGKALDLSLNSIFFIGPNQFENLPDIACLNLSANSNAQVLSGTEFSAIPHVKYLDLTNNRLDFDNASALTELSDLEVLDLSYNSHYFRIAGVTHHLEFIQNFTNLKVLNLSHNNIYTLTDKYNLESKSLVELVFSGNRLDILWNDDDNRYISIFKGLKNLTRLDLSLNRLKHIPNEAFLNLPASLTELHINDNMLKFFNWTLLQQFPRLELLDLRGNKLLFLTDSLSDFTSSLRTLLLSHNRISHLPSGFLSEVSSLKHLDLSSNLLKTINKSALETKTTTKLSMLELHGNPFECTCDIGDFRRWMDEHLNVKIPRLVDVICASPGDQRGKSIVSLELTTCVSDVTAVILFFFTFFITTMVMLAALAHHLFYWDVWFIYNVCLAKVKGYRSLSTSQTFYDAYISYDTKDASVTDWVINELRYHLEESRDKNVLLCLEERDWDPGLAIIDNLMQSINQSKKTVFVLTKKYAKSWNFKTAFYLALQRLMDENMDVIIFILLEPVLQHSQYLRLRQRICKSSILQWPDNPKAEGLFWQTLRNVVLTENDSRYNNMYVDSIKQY
- PROTOCOL: TLR8 inhibition reporter assay (HEK-Blue, SEAP)
- RUN PARAMETERS: HEK-Blue cells overexpressing human TLR8, ligand R848 14.25 μM, 22 hour incubation
// values below are reported IC50
VALUE KIND: IC50

compound=COc1ccc(-c2nc3c(C)cc(-c4ccc(N5CC6(CN(CC(C)C)C6)C5)cc4)nc3n2C)cc1OC value_kind=IC50 result_value="9.8 µM"
compound=CC(C)N1CC2(CN(c3ccc(-c4ccc5nc(-c6ccc(S(C)(=O)=O)cc6)n(C)c5n4)cc3)C2)C1 value_kind=IC50 result_value="3 µM"
compound=COc1ccc(-c2nc3c(C)cc(C4CCN([C@H]5C[C@@H]6CN(C7CCOCC7)C[C@@H]6C5)CC4)nc3n2C)cc1OC value_kind=IC50 result_value="> 50 µM"
compound=COc1cc(-c2nc3c(C)cc(C4CCN([C@H]5C[C@@H]6CN(C7CCC7)C[C@@H]6C5)CC4)nc3n2C)cn2ncnc12 value_kind=IC50 result_value="> 50 µM"
compound="Cc1cc(C2CCN(C3CC4CCC(C3)N4C3CCOCC3)CC2)nc2c1nc(-c1ccc(S(C)(=O)=O)cc1)n2C (single isomer, unassigned) [Example 34]" value_kind=IC50 result_value="> 50 µM"
